Target entity: HIV integrase (Human immunodeficiency virus type 1 group M subtype B, UniProt P12497, F1332H)
Construct: HIV integrase full length gene
Test protocol: Determination of enzyme (HIV integrase) inhibitory activity
Test context: recombinant HIV integrase (F185H), strand transfer ELISA, absorbance at 450 nm
pIC50: −log10 of the molar value. Where a name gives a salt, the structure may show the parent alone.
Test readout: pIC50

Look over these answered cases.
O=c1ccn2ccn(CCCc3cccc(Cl)c3Cl)c(=O)c2c1O [Example 91, hydrochloride] | 7.00 to 8.00
CN(C)C(=O)c1cn(Cc2cccc(Cl)c2)c(=O)c2c(O)c(=O)ccn12 | 7.00 to 8.00
CCCC(=O)Nc1cn2ccn(Cc3cccc(Cl)c3)c(=O)c2c(O)c1=O | > 8.00
O=C(NCc1ccncc1)c1cn2ccn(Cc3cccc(Cl)c3)c(=O)c2c(O)c1=O | 7.00 to 8.00
CC(C)c1cn(Cc2cccc(Cl)c2)c(=O)c2c(O)c(=O)c(-c3ccccc3)cn12 [Example 131, hydrochloride] | 7.00 to 8.00

Fill blank: measured pIC50 of the compound CN(C)C(=O)c1cn2ccn(Cc3cccc(Cl)c3)c(=O)c2c(O)c1=O is ____.
7.00 to 8.00

How about this compound: O=C1CCN(C(=O)c2cn3ccn(Cc4cccc(Cl)c4)c(=O)c3c(O)c2=O)C1
7.00 to 8.00

How about this compound: Cn1ncnc1-c1cn2c(c(O)c1=O)C(=O)N(Cc1ccc(F)c(Cl)c1)CC2
> 8.00

How about this compound: O=c1c(-c2ccccn2)cn2ccn(Cc3ccc(F)c(F)c3)c(=O)c2c1O [Example 369, hydrochloride]
> 8.00

How about this compound: CN(C)C(=O)c1cn2ccn(Cc3ccc(F)c(Cl)c3)c(=O)c2c(O)c1=O
> 8.00

How about this compound: CN(C(=O)Cn1ccn2ccc(=O)c(O)c2c1=O)c1ccccc1 [Example 226, hydrochloride]
6.00 to 7.00

How about this compound: CNC(=O)c1cn2c(CO)cn(Cc3ccc(F)c(Cl)c3)c(=O)c2c(O)c1=O [Example 222, hydrochloride]
> 8.00

How about this compound: COC(=O)Nc1cn2ccn(Cc3cccc(Cl)c3)c(=O)c2c(O)c1=O
> 8.00

How about this compound: CCN(CC)C(=O)c1cc(=O)c(O)c2n1CCN(Cc1ccc(Cl)c(Cl)c1)C2=O
7.00 to 8.00

How about this compound: O=C(O)CNC(=O)c1cn2ccn(Cc3cccc(Cl)c3)c(=O)c2c(O)c1=O
7.00 to 8.00
